Tested on: Hs578T
EXPERIMENT_DESCRIPTION: normalised response (% of control), CellTiter-Glo; higher = more viable cells (100 = DMSO, 0 = benzethonium chloride kill control)
CONDITION_CONTEXT: incubation time: 72 h
The compounds listed here are annotated with their normalised response.
MEASURED_ATTRIBUTE: normalised response (%)

COMPOUND: CC(=O)[C@]1(O)Cc2c(O)c3c(c(O)c2[C@@H](O[C@H]2C[C@H](N)[C@H](O)[C@H](C)O2)C1)C(=O)c1ccccc1C3=O [Idarubicin] (10 nM)
EXPERIMENTAL_TARGET: Hs578T
OBS_VALUE: 94.5

COMPOUND: C=CCn1c(=O)c2cnc(Nc3ccc(N4CCN(C)CC4)cc3)nc2n1-c1cccc(C(C)(C)O)n1 [MK1775] (100 nM)
EXPERIMENTAL_TARGET: Hs578T
OBS_VALUE: 87.7

COMPOUND: CC[C@H](CO)Nc1nc(NCc2ccccc2)c2ncn(C(C)C)c2n1 [Seliciclib] (100 nM)
EXPERIMENTAL_TARGET: Hs578T
OBS_VALUE: 104

COMPOUND: O=C(CCCCCCC(=O)Nc1ccccc1)NO [Vorinostat] (100 nM)
EXPERIMENTAL_TARGET: Hs578T
OBS_VALUE: 98.2

COMPOUND: Cc1cn(-c2cc(NC(=O)c3ccc(C)c(Nc4nccc(-c5cccnc5)n4)c3)cc(C(F)(F)F)c2)cn1 [Nilotinib] (100 nM)
EXPERIMENTAL_TARGET: Hs578T
OBS_VALUE: 97.6

COMPOUND: CC(C)(C)NC(=O)[C@H]1CC[C@H]2[C@@H]3CC[C@H]4NC(=O)C=C[C@]4(C)[C@H]3CC[C@]12C [Finasteride] (100 nM)
EXPERIMENTAL_TARGET: Hs578T
OBS_VALUE: 105

COMPOUND: CC1(COc2ccc3c(c2)ncn3-c2ccc3cccc(N4CCC(N)CC4)c3n2)COC1 [Crenolanib] (100 nM)
EXPERIMENTAL_TARGET: Hs578T
OBS_VALUE: 103

###

Tested on: MFM-223
EXPERIMENT_DESCRIPTION: normalised response (% of control), CellTox Green; higher = less cell death (100 = DMSO, 0 = benzethonium chloride kill control)
CONDITION_CONTEXT: incubation time: 72 h
The compounds listed here are annotated with their normalised response.

COMPOUND: CCn1c(C(=O)N(C2CC2)C2CC2)cc2c3c(ncn3C)c(Nc3cc(C)n(C)n3)nc21 (10000 nM)
U: %
normalised response: 94.3

COMPOUND: CC1(C)CCC(c2ccc(Cl)cc2)=C(CN2CCN(c3ccc(C(=O)NS(=O)(=O)c4ccc(N[C@H](CCN5CCOCC5)CSc5ccccc5)c(S(=O)(=O)C(F)(F)F)c4)cc3)CC2)C1 [Navitoclax] (1000 nM)
U: %
normalised response: 95.8

COMPOUND: Cc1cn(-c2cc(NC(=O)c3ccc(C)c(Nc4nccc(-c5cccnc5)n4)c3)cc(C(F)(F)F)c2)cn1 [Nilotinib] (100 nM)
U: %
normalised response: 61.4

###

System: HCC1937
EXPERIMENT_DESCRIPTION: normalised response (% of control), CellTiter-Glo; higher = more viable cells (100 = DMSO, 0 = benzethonium chloride kill control)
CONDITION_CONTEXT: incubation time: 72 h
MEASURED_ATTRIBUTE: normalised response (%)

MOLECULE: CCNC(=O)CCC/C=C\C[C@@H]1[C@@H](/C=C/[C@@H](O)CCc2ccccc2)[C@H](O)C[C@@H]1O [Bimatoprost] (0.55 nM)
EXPERIMENTAL_TARGET: HCC1937
U: %
OBS_VALUE: 99.9

MOLECULE: Cc1cn(-c2cc(NC(=O)c3ccc(C)c(Nc4nccc(-c5cccnc5)n4)c3)cc(C(F)(F)F)c2)cn1 [Nilotinib] (1 nM)
EXPERIMENTAL_TARGET: HCC1937
U: %
OBS_VALUE: 96.1

MOLECULE: CC(C)n1cnc2c(NCCc3ccc(O)cc3)nc(-c3csc4ccccc34)nc21 [StemRegenin 1] (10 nM)
EXPERIMENTAL_TARGET: HCC1937
U: %
OBS_VALUE: 96.3

MOLECULE: C=CCn1c(=O)c2cnc(Nc3ccc(N4CCN(C)CC4)cc3)nc2n1-c1cccc(C(C)(C)O)n1 [MK1775] (10 nM)
EXPERIMENTAL_TARGET: HCC1937
U: %
OBS_VALUE: 94.5

FYI, the data here is from the supplement of paper PMC4862054.
